In this section, each of the compounds is paired with its reported normalised response.
# System: CAL-148
# test: normalised response (% of control), CellTiter-Glo; higher = more viable cells (100 = DMSO, 0 = benzethonium chloride kill control)
# assay-setup: incubation time: 72 h

>  <compound>
Nc1nc(Cl)nc2c1ncn2[C@@H]1O[C@H](CO)[C@@H](O)[C@@H]1F [Clofarabine] (1000 nM)

>  <unit-label>
%

>  <normalised response>
58.5

$$$$
>  <compound>
Cn1cc(C[C@@H](N)C(=O)O)c2ccccc21 [1-methyl-D-tryptophan] (0.5 nM)

>  <unit-label>
%

>  <normalised response>
87.4

$$$$
>  <compound>
O=C(c1cc(Cc2n[nH]c(=O)c3ccccc23)ccc1F)N1CCN(C(=O)C2CC2)CC1 [Olaparib] (1000 nM)

>  <unit-label>
%

>  <normalised response>
83.1

$$$$
>  <compound>
CC(C)C(=O)Nc1ccc([N+](=O)[O-])c(C(F)(F)F)c1 [Flutamide] (1000 nM)

>  <unit-label>
%

>  <normalised response>
99.9

$$$$
>  <compound>
C[C@@H](C(=O)O)c1ccc(-c2ccccc2)c(F)c1 [Tarenflurbil] (1000 nM)

>  <unit-label>
%

>  <normalised response>
91.7

$$$$
>  <compound>
CO[C@H]1C[C@@H]2CC[C@@H](C)[C@@](O)(O2)C(=O)C(=O)N2CCCC[C@H]2C(=O)O[C@H]([C@H](C)C[C@@H]2CC[C@@H](O)[C@H](OC)C2)CC(=O)[C@H](C)/C=C(\C)[C@@H](O)[C@@H](OC)C(=O)[C@H](C)C[C@H](C)/C=C/C=C/C=C/1C [Sirolimus] (0.1 nM)

>  <unit-label>
%

>  <normalised response>
101

$$$$
